Reference for the values: patent US12473304B2

Tested system: human PAD4 (hPAD4) (Homo sapiens (Human), UniProt Q9UM07)
Sequence (Q9UM07 whole entry): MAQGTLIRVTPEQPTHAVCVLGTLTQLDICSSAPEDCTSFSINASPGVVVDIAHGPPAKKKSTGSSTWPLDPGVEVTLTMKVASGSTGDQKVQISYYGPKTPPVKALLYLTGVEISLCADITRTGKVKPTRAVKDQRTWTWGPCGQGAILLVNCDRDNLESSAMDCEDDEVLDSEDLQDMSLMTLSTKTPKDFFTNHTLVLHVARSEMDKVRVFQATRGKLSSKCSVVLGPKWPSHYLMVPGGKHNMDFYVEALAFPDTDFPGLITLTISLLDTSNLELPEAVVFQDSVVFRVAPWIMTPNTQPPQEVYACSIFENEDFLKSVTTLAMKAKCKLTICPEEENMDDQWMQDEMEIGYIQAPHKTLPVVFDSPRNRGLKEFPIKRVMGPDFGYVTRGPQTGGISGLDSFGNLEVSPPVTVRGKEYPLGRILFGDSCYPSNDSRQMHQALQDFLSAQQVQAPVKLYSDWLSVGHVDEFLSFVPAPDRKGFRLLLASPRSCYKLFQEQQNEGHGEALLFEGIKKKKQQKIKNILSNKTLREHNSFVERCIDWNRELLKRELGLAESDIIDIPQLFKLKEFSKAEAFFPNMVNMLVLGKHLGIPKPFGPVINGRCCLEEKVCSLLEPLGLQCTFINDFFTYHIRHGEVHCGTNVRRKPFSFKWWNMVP
Test method notes: RFMS Human PAD4 Functional Assay 1
Details: RFMS assay 1; 5 nM hPAD4, 250 μM BAEE substrate, 50 μM calcium, 37° C.
Exercise: state measured pIC50 for each of the molecules provided.
Please express pIC50 as -log10 of the molar concentration.

In: Which pIC50 reading was recorded for the molecule Cc1c(-c2cc3ccc(N4CCNCC4=O)cc3n2CC2CC2)oc2cc(C(=O)N3CC4CCC3[C@@H]4N)ccc12 (stereo partly drawn) ?
Out: 6.48

In: Can you look up the measured pIC50 of COc1cc(C(=O)N2C[C@H](N)C[C@@H](F)C2)cn2nc(-c3cc4cccc(C5CCN(C(=O)C6CCCCO6)CC5)c4n3CC3CC3)c(C)c12 (single isomer, unassigned) [Example 389] for me?
Out: 7.52

In: Could you share which pIC50 value was measured for CO[C@H](C)C(=O)N1CCC(c2cccc3cc(-c4nn5cc(C(=O)N6CCC[C@@H](N)C6)cc(F)c5c4C)n(CC4CC4)c23)CC1 ?
Out: 7.30

In: I have this molecule here, Cc1c(-c2cc3ccc(-c4ccc(C(N)=O)cc4)nc3n2CC2CC2)nn2cc(C(=O)N3CC4CCC3[C@@H]4N)cc(F)c12 (stereo partly drawn) , and I need its recorded pIC50.
Out: 7.05

In: Can you look up the measured pIC50 of Cc1c(-c2cc3cccc(C4CCN(C(=O)C5CC(O)(C(F)(F)F)C5)CC4)c3n2CC2CC2)nn2cc(C(=O)N3C[C@H](N)C[C@@H](F)C3)cc(F)c12 (mixture of isomers) for me?
Out: 7.10

In: I have this molecule here, Cc1c(-c2cc3cccc(C4CCN(C(=O)[C@H]5CC[C@@H](O)CC5)CC4)c3n2CC2CC2)nn2cc(C(=O)N3C[C@H](N)C[C@@H](F)C3)ccc12 , and I need its recorded pIC50.
Out: 8.00

In: # pIC50 lookup, item Cc1c(-c2cc3ccc(-c4ccc5[nH]ncc5c4)nc3n2CC2CC2)nn2cc(C(=O)N3CCC[C@@H](N)C3)cc(Cl)c12
Out: 5.63

In: Need pIC50 of COc1cc(C(=O)N2C[C@H](N)C[C@@H](F)C2)cn2nc(-c3cc4cccc(C5CCN(C(=O)[C@H]6CC[C@H](O)CC6)CC5)c4n3CC3CC3)c(C)c12 [Example 409] , thanks.
Out: 7.40

In: Fill blank: measured pIC50 of the molecule COc1cc(C(=O)N2C[C@H](N)C[C@@H](F)C2)cn2nc(-c3cc4ccc(-c5ccc6c(c5)C(=O)NC6)nc4n3CC3CC3)c(C)c12 is ____.
Out: 6.39

In: Fill blank: measured pIC50 of the molecule COc1cc(C(=O)N2CCC[C@@H](N)C2)cn2nc(-c3cc4ccnc(OCC5CNC(=O)C5)c4n3CC3CC3)c(C)c12 (single isomer, unassigned; isomer 2) [Example 603] is ____.
Out: 7.00

In: Fill in the blank: the reported pIC50 of Cc1c(-c2cc3cccc(OC[C@H]4CCC(=O)N4)c3n2CC2CC2)nn2cc(C(=O)N3CCC[C@@H](N)C3)cc(F)c12 is ____.
Out: 6.74

In: Given the molecule Cc1c(-c2cc3ccc(N4CCC5(CC4)CN(C)C(=O)O5)nc3n2CC2CC2)nn2cc(C(=O)N3CCC[C@@H](N)C3)cc(F)c12 , what is its reported pIC50?
Out: 6.27

In: Can you share its pIC50? I mean this molecule: Cc1c(-c2cc3ccc(-c4ccccc4C(N)=O)cc3n2CC2CC2)nn2cc(C(=O)N3C[C@H](N)C[C@@H](F)C3)ccc12
Out: 6.72

In: Name the recorded pIC50 for Cc1c(-c2cc3ccc(N4CCC[C@@H](O)C4)nc3n2CC2CC2)nn2cc(C(=O)N3CC4CCC3[C@@H]4N)ccc12 (stereo partly drawn) .
Out: 6.84

In: Could you tell me which pIC50 is on file for COc1cc(C(=O)N2CC3CCC2[C@@H]3N)cc2sc(-c3cc4ccc(-c5cccc(F)c5C)cc4n3CC3CC3)c(C)c12 (stereo partly drawn) ?
Out: 5.36

In: # query: pIC50 of entry Cc1c(-c2cc3ccc(-c4ccc(C(N)=O)c(F)c4)cc3n2CC2CC2)oc2cc(C(=O)N3C[C@H](N)C[C@@H](F)C3)ccc12
Out: 6.42

In: So what does the record say about pIC50 for CC(=O)N1CC(c2cccc3cc(-c4nn5cc(C(=O)N6CC7CCC6[C@@H]7N)ccc5c4C)n(CC4CC4)c23)C1 (stereo partly drawn) ?
Out: 8.00

In: // lookup pIC50 for COc1cc(C(=O)N2CCC[C@@H](N)C2)cn2nc(-c3cc4ccc(-c5cccc(CO)c5)cc4n3CC3CC3)c(C)c12
Out: 6.02

In: Quick check: pIC50 of Cc1c(-c2cc3ccc(C(C)(C)O)nc3n2CC2CC2)nn2cc(C(=O)N3CCC[C@@H](N)C3)ccc12 ?
Out: 6.85

In: What value of pIC50 has been reported for the following molecule? COc1cc(C(=O)N2C[C@H](N)C[C@@H](F)C2)cn2nc(-c3cc4ccc(N5CC(N(C)S(C)(=O)=O)C5)cc4n3CC3CC3)c(C)c12
Out: 6.92

In: Please give the measured pIC50 for this molecule: Cc1c(-c2cc3ccc(-c4cccc(O)c4F)nc3n2CC2CC2)nn2cc(C(=O)N3CC4CCC3[C@@H]4N)cnc12 (stereo partly drawn)
Out: 6.53

In: Requested field: pIC50. Item: COc1cc(C(=O)N2C[C@H](N)C[C@@H](F)C2)cc2sc(-c3cc4ccc(-c5ccc6c(c5)C(=O)NC6)nc4n3CC3CC3)c(C)c12
Out: 6.46

In: Report pIC50 for Cc1c(-c2cc3ccc(-c4ccc5c(c4)C(=O)NC5)nc3n2CC2CC2)nn2cc(C(=O)N3CCC[C@@H](N)C3)cc(F)c12 please.
Out: 5.90

In: Please give the measured pIC50 for this molecule: COc1cc(C(=O)N2CC3CCC2[C@@H]3N)cc2sc(-c3cc4ccc(N5CCC(OC)CC5)nc4n3CC3CC3)c(C)c12 (stereo partly drawn)
Out: 7.15
